tgt: Neu5Ac(a2-3)Gal6S(b1-4)GlcNAc
assay.info: glycan array binding signal (z-score within array); higher = stronger binding
particulars: glycan notation: IUPAC condensed, linker removed
Only a selection was taken, and the strongest signals are over-represented in it overall.
glycan array binding signal (z-score) vs -0.2: at or above is class 1, below is class 0.

binder	assigned.category
CBM40 CPF071 (Clostridium perfringens) (protein) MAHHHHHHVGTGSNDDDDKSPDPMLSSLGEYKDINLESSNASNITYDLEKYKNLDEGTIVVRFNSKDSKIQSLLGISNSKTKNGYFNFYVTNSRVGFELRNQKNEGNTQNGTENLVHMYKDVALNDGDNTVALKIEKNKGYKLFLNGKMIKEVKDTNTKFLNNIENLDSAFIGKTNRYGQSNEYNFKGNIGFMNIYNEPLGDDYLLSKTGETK	class 1
StdA (Salmonella typhimurium), Q8Z3Z0 (protein) MAAAGMMYGASVFAADTTPTAGPFGSGKILFTGTITNSPCDIAPGDDAITVPFGQISYRKLNTANATTDSKPFTIHLQNCAFDPNETTIAGSAGKMSKVTVSFSGTADTSGKAYVSTGSAQHVGVQLLKGDNTSLITPNTPMPDGDAQQLQAGNNELNFFARLIALTDAATPGDVNASVTYTLKYL	class 0
Apa (Mycobacterium tuberculosis), Rv1860 (protein) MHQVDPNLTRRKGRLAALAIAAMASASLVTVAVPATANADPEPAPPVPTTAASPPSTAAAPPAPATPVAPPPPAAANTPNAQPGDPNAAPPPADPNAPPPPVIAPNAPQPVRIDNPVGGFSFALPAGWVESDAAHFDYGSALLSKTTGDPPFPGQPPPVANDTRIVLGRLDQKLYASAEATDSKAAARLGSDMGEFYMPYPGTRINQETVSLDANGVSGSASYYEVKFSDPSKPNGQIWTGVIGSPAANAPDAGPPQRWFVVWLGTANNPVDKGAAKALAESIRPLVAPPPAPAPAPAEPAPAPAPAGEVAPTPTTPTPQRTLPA	class 0
F4 (Escherichia coli), A0A6L9DDF0 (protein) MKKTLIALALAASAVSGMAHAWTSGDFNGTVDIGGSIDATNYRQKWEWEVGTGLNGFYNALSELTNNDTKLTITVTGNKPILLGRTKEAFVTPTAGGWGGIPQIAFTDYKGAPVELKNPDGETNKGLAYFVLPMKNADGTEAGSVRVNASYAGAVVEKTSDSSAKLFSAYAGEVIRIFNGGLPVNVTQSELQSGVAAADRTALFGSLGKADLVAQFQAVIPGATVTDGTSSEHCTMRLLASAAYALGIADGQTIEATFNQAVTTSTQWSAPLNVAITYY	class 0
BSR4 (Toxoplasma gondii), Q95NL6 (protein) MVMMGSMQQRRGGLRSNARQLLAVCMSGVVFFSSGQAVADNLLEGLLHRTLQQQVEVTSRLTVAGSDAKCDFFTPATQDSPPVSGSLTLSKGRMTATFECSATQALSISTIPTNIEQNVCDPKKTTNGTVCQFGANGSAGTEVTLKDLLETDRIVNWKVNEQREESNKSQKWSLELHNEDLPLTDKAFVVGCQATSAARGTESGKTAACKLTVNVEARASSLAENNVVTCAYGKGSNPNPVEVEMSTEKNTLTINCGSDGSLQPTTYAEEYCVADSKDVNRCSTTRFVEIFPKFLKSWWVTETQKRTSATLTIPQTDLPEADQQFLVGCVPKKTAPEDPKKDKESGTETGAPTSCTVLVTVKAASSASHASPTVQILAAASSAAA	class 0
AidA (Burkholderia cenocepacia) (protein) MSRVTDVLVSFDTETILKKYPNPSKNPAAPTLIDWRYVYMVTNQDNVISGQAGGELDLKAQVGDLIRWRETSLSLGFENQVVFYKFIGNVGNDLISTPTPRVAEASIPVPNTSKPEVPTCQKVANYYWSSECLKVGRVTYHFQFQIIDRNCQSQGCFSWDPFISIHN	class 0

This collection of values is drawn from the supplement of paper PMC8728848.
